Read-out: Monocyte Chemoattractant Protein-1 (MCP1), CCL2 (gene 6347)
assay-remarks: BSK_3C_MCP1: BioMAP Diversity Plus: 3C Assay for Monocyte Chemoattractant Protein-1 (MCP1) Biomarker Activity (AID 2283017)
experimental-context: primary human endothelial cells (HUVEC); actives raise or lower the signal
Calls of active or inactive are those of the source. Rule for the calls: active = hit-call score of the fitted dose curve at least 0.9, where 1 is the maximum; inactive = score below 0.9.
Outcome codes: y (active), n (inactive)

molecule | label
CCC(C)Nc1c([N+](=O)[O-])cc(C(C)(C)C)cc1[N+](=O)[O-] (stereo unspecified) | y
O=C1c2ccccc2C(=O)N1SC(Cl)(Cl)Cl | n
CC(C)N(C(=O)COc1nnc(C(F)(F)F)s1)c1ccc(F)cc1 | n
Oc1ccc(Cl)cc1Cc1ccccc1 | y
CC(C)(C)C(O)C(Oc1ccc(Cl)cc1)n1cncn1 (stereo unspecified) | n
CCOc1nc(NC)nc(NC(=O)NS(=O)(=O)c2ccccc2C(=O)OC)n1 | n
C[C@H]1[C@H](c2ccc(Cl)cc2)SC(=O)N1C(=O)NC1CCCCC1 | y
O=[N+]([O-])c1c(Cl)c(Cl)c(Cl)c(Cl)c1Cl | n
O=[N+]([O-])/N=C1\NCCN1Cc1ccc(Cl)nc1 | n
O=C(NC(=O)c1c(F)cccc1F)Nc1ccc(OC(F)(F)C(F)OC(F)(F)F)c(Cl)c1 (stereo unspecified) | n
CCOC1Oc2ccc(OS(C)(=O)=O)cc2C1(C)C (stereo unspecified) | y
